# tested.on: T1, full-length beta-Catenin (Uniprot ID P35222) (Homo sapiens (Human), UniProt P35222 1-781)
# T1 construct: The assay protocol says 'full-length beta-Catenin (Uniprot ID P35222)'; also called bCat; B-Catenin
# T1 sequence: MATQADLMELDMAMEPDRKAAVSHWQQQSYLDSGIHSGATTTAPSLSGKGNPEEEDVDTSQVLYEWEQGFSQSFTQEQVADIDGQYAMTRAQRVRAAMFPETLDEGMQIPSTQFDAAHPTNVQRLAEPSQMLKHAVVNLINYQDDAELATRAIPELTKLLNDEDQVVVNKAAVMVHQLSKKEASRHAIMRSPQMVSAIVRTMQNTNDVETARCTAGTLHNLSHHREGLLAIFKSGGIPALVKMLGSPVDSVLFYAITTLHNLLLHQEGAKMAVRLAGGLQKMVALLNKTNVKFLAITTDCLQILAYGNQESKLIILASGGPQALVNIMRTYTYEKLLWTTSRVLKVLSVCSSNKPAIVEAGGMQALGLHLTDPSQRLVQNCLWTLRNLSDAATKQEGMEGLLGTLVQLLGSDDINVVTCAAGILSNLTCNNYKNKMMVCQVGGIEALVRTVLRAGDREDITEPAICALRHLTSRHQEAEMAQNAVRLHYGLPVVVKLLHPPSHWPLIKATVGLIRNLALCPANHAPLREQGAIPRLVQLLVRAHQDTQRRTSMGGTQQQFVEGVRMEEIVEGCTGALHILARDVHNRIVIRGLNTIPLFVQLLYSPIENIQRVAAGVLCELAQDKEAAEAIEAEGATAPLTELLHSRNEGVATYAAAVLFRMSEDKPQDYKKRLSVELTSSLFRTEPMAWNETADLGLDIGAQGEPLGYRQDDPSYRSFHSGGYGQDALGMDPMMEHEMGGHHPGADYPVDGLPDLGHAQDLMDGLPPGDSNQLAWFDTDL
# assay.procedure: fluorescence polarization competition; full-length beta-catenin, competitor 5FAM-TCF4(10-53) probe
Starred links: 1 amine or outer side, 2 acyl side, 3 side chain; linkers in the order of their positions; H or OH if unused. Positions of bridges follow the written chain, without caps; N, C: chain ends. Non-standard residues stand in square brackets, D forms with d. Primed or numbered codes have the meaning given here. RdN″ = (R)-4-(((allyloxy)carbonyl)(methyl)amino)-2-amino-2-methylbutanoic acid (stapling residue), C=CCOC(=O)N(C)CC[C@@](C)(N[*:1])C(=O)[*:2]; B5(16) = 2-amino-2-(pent-4-en-1-yl)hept-6-enoic acid = 2,2-bis(4-pentenyl)glycine (stitching residue), C=CCCCC(CCCC=C)(N[*:1])C(=O)[*:2]; B5(4) = 2,2-bis(4-pentenyl)glycine = 2-amino-2-(pent-4-en-1-yl)hept-6-enoic acid (stitching residue), C=CCCCC(CCCC=C)(N[*:1])C(=O)[*:2]; B5(5) = 2,2-bis(4-pentenyl)glycine, 2-amino-2-(pent-4-en-1-yl)hept-6-enoic acid (stitching residue), C=CCCCC(CCCC=C)(N[*:1])C(=O)[*:2]; EtGA = (S)-2-amino-3-((carboxymethyl)(ethyl)amino)propanoic acid, CCN(CC(=O)[*:3])C[C@H](N[*:1])C(=O)[*:2]; B5 = 2-amino-2-(pent-4-en-1-yl)hept-6-enoic acid, C=CCCCC(CCCC=C)(N[*:1])C(=O)[*:2]; Trp(7-F) = N[C@@H](Cc1c[nH]c2c(F)cccc12)C(=O)O; S7 = C[C@@](CCCCCC=[*:3])(N[*:1])C(=O)[*:2]; Bta = N[C@@H](Cc1csc2ccccc12)C(=O)O; αAllylPro = C=CC[C@@]1(C(=O)O)CCCN1; S8 = C=CCCCCCC[C@](C)(N)C(=O)O
property: pIC50
pIC50 here is simply -log10 of the concentration when that concentration is written in mol/L.

>>> test_result("Ac-[αAllylPro]DA[B5(16)]DEAAFV[S8]F[Trp(7-F)]Q-NH2 (staple 1-4, 4-11, also called Ac-PL3-Asp-Ala-B5-Asp-Glu-Ala-Ala-Phe-Val-S8-Phe-7FW-Gln-NH2) [I-166]")
5.66
>>> test_result("Ac-[αAllylPro]DA[B5(4)]DEAAFV[S8]F[Bta]Q-NH2 (staple 1-4, 4-11, also called Ac-PL3-Asp-Ala-B5-Asp-Glu-Ala-Ala-Phe-Val-S8-Phe-BztA-Gln-NH2) [I-144]")
6.83
>>> test_result("XDIXDEAAFQXFWQ (not fully specified; N-terminal acetyl (Ac); PL3 at 1, B5 at 4, S8 at 11 (staples PL3-B5 and B5-S8 by olefin metathesis); C-terminal amide (NH2), also called Ac-PL3-Asp-Ile-B5-Asp-Glu-Ala-Ala-Phe-Gln-S8-Phe-Trp-Gln-NH2) [I-180]")
7.25

Entry Ac-[αAllylPro]DA[B5]D[EtGA]AAFV[S8]FWQ-NH2 (staple 1-4, 4-11; not fully specified, also called Ac-PL3-Asp-Ala-B5-Asp-EtGA-Ala-Ala-Phe-Val-S8-Phe-Trp-Gln-NH2) [I-173] — recorded pIC50 = 5.51

Entry Ac-[αAllylPro]DA[B5(4)]D[EtGA]AAFV[S8]FWQ-NH2 (staple 1-4, 4-11; not fully specified, also called Ac-PL3-Asp-Ala-B5-Asp-EtGA-Ala-Ala-Phe-Val-S8-Phe-Trp-Gln-NH2) [I-172] — recorded pIC50 = 5.30

Entry Ac-[αAllylPro]DI[B5(5)]DDAAFQ[S8]FWH-NH2 (staple 1-4, 4-11, also called Ac-PL3-Asp-Ile-B5-Asp-Asp-Ala-Ala-Phe-Gln-S8-Phe-Trp-His-NH2) [I-174] — recorded pIC50 = 5.75

Entry Ac-[αAllylPro]DI[B5(5)]DEAAFV[S8]FWH-NH2 (staple 1-4, 4-11, also called Ac-PL3-Asp-Ile-B5-Asp-Glu-Ala-Ala-Phe-Val-S8-Phe-Trp-His-NH2) [I-176] — recorded pIC50 = 5.70

Entry Ac-ADI[RdN″]DEAAFQ[S7]FW-NH2 (staple 4-11, also called Ac-Ala-Asp-Ile-RdN-Asp-Glu-Ala-Ala-Phe-Gln-S7-Phe-Trp-NH2) [I-148] — recorded pIC50 = 5.56
